Each entry below carries its recorded log10 of IC50 at 96 h.
# ASSAY_PROCEDURE: Growth inhibition, sulforhodamine B (SRB) assay, SKOV-3
# Assay type: cell-based
# MEASUREMENT_CONDITIONS: human, SKOV-3 ovarian carcinoma cells, 96 hr incubation, read-out: Cytotoxicity IC50 SKOV-3
Scale: log10; quantity: IC50 at 96 h; unit before log: µM

Record excerpt, results attached:
{"COMPOUND": "COc1cc2c3c([n+](C)c4ccccc4c3c1)-c1ccc(Cl)cc1N2C [RHPS12]", "log10 of IC50 at 96 h": 1.00}
{"COMPOUND": "Cc1cc2c3c([n+](C)c4ccc(F)cc4c3c1)-c1cc(F)ccc1N2C [RHPS04]", "log10 of IC50 at 96 h": 1.36}
{"COMPOUND": "CN1c2ccccc2-c2c3c1cccc3c1ccccc1[n+]2C [RHPS05]", "log10 of IC50 at 96 h": 1.26}

Query: Give the measured log10 of IC50 at 96 h of CN1c2ccccc2-c2c3c1cccc3c1cc(Cl)ccc1[n+]2C [RHPS06] .
Response: 1.10

Query: Give the measured log10 of IC50 at 96 h of Cc1cc2c3c([n+](C)c4ccccc4c3c1)-c1ccccc1N2C [RHPS01] .
Response: 0.56

Query: Give the measured log10 of IC50 at 96 h of COc1cc2c3c([n+](C)c4ccc(Cl)cc4c3c1)-c1ccccc1N2C [RHPS10] .
Response: 0.80

Query: Give the measured log10 of IC50 at 96 h of Cc1cc2c3c([n+](C)c4ccc(Cl)cc4c3c1)-c1cc(Cl)ccc1N2C [RHPS02] .
Response: 0.97

Query: Give the measured log10 of IC50 at 96 h of COC(=O)/C=C/c1ccc2c(c1)c1cccc3c1c([n+]2C)-c1ccccc1N3C [RHPS15] .
Response: 1.28

Query: Give the measured log10 of IC50 at 96 h of COC(=O)Oc1cc2c3c([n+](C)c4ccccc4c3c1)-c1ccccc1N2C [RHPS13] .
Response: 0.18

====

# ASSAY_PROCEDURE: Growth inhibition, sulforhodamine B (SRB) assay, A2780
# Format: cell-based
# MEASUREMENT_CONDITIONS: human, A2780 ovarian carcinoma cells, 96 hr incubation, read-out: Cytotoxicity IC50 A2780
Each entry below carries its recorded IC50 at 96 h.
Write it as a number; the unit nM goes unstated.

Record excerpt, results attached:
{"STRUCTURE_NOTATION": "Cc1cc2c3c([n+](C)c4ccc(F)cc4c3c1)-c1cc(F)ccc1N2C", "UOM": "nM", "IC50 at 96 h": 1100}
{"STRUCTURE_NOTATION": "Cc1cc2c3c([n+](C)c4ccc(Cl)cc4c3c1)-c1cc(Cl)ccc1N2C", "UOM": "nM", "IC50 at 96 h": 1300}

Could you now consider this next molecule?
Query: Give the measured IC50 at 96 h of CN1c2ccccc2-c2c3c1cccc3c1cc(Cl)ccc1[n+]2C .
Response: 1100

====

# TARGET_ENTITY: telomerase (extracts from A2780 human ovarian carcinoma cells) (Homo sapiens)
Output condition met for records whose IC50 is lower than 700 nM, condition not met for records at or above 700 nM.

Query: Would you kindly verify if IC50 of CC(=O)Oc1cc2c3c([n+](C)c4ccccc4c3c1)-c1ccccc1N2C is strictly less than 700 nM?
Response: condition not met

Query: Would you kindly verify if IC50 of COC(=O)CCc1ccc2c(c1)c1cccc3c1c([n+]2C)-c1ccccc1N3C is strictly less than 700 nM?
Response: condition not met

Query: Would you kindly verify if IC50 of Cc1cc2c3c([n+](C)c4ccc(Cl)cc4c3c1)-c1cc(Cl)ccc1N2C is strictly less than 700 nM?
Response: condition met

Query: Would you kindly verify if IC50 of Cc1cc2c3c([n+](C)c4ccc(F)cc4c3c1)-c1cc(F)ccc1N2C is strictly less than 700 nM?
Response: condition met

Query: Would you kindly verify if IC50 of Cc1cc2c3c([n+](C)c4ccccc4c3c1)-c1ccccc1N2C is strictly less than 700 nM?
Response: condition not met

====

# ASSAY_PROCEDURE: Growth inhibition, sulforhodamine B (SRB) assay, SKOV-3
# Type: cell-based
# MEASUREMENT_CONDITIONS: human, SKOV-3 ovarian carcinoma cells, 96 hr incubation, read-out: Cytotoxicity IC50 SKOV-3
PROPERTY_NAME: IC50 at 96 h (µM)
Write it as a number; the unit µM goes unstated.

Record excerpt, results attached:
{"MOLECULE": "CC(=O)Oc1cc2c3c([n+](C)c4ccccc4c3c1)-c1ccccc1N2C [RHPS11]", "TEST_RESULT": 3.5}
{"MOLECULE": "COc1cc2c3c([n+](C)c4ccccc4c3c1)-c1ccccc1N2C [RHPS08]", "TEST_RESULT": 3.6}

Could you now consider this next molecule?
Query: Give the measured IC50 at 96 h of Cc1ccc2c(c1)-c1c3c(cc(C)cc3c3cc(C)ccc3[n+]1C)N2C [RHPS03] .
Response: 0.75

====

Each entry below carries its recorded IC50 at 96 h.
# ASSAY_PROCEDURE: Growth inhibition, sulforhodamine B (SRB) assay, CH1
# Type: cell-based
# MEASUREMENT_CONDITIONS: human, CH1 ovarian carcinoma cells, 96 hr incubation, read-out: Cytotoxicity IC50 CH1
The reply must contain the numeric value and, after it, the unit.

{"COMPOUND": "Cc1ccc2c(c1)-c1c3c(cc(C)cc3c3cc(C)ccc3[n+]1C)N2C [RHPS03]", "TEST_RESULT": "0.29 µM"}
{"COMPOUND": "COC(=O)CCc1ccc2c(c1)c1cccc3c1c([n+]2C)-c1ccccc1N3C [RHPS09]", "TEST_RESULT": "11.5 µM"}
{"COMPOUND": "COc1cc2c3c([n+](C)c4ccc(Cl)cc4c3c1)-c1ccccc1N2C [RHPS10]", "TEST_RESULT": "1.1 µM"}
{"COMPOUND": "CC(=O)Oc1cc2c3c([n+](C)c4ccccc4c3c1)-c1ccccc1N2C [RHPS11]", "TEST_RESULT": "1.6 µM"}
{"COMPOUND": "CN1c2ccccc2-c2c3c1cccc3c1cc(Cl)ccc1[n+]2C [RHPS06]", "TEST_RESULT": "0.5 µM"}

Could you now consider this next compound?
Query: Give the measured IC50 at 96 h of CN1c2ccccc2-c2c3c1cccc3c1ccccc1[n+]2C [RHPS05] .
Response: 1.1 µM

====

# TARGET_ENTITY: telomerase (extracts from A2780 human ovarian carcinoma cells) (Homo sapiens, UniProt O14746)
# Sequence (O14746 whole entry): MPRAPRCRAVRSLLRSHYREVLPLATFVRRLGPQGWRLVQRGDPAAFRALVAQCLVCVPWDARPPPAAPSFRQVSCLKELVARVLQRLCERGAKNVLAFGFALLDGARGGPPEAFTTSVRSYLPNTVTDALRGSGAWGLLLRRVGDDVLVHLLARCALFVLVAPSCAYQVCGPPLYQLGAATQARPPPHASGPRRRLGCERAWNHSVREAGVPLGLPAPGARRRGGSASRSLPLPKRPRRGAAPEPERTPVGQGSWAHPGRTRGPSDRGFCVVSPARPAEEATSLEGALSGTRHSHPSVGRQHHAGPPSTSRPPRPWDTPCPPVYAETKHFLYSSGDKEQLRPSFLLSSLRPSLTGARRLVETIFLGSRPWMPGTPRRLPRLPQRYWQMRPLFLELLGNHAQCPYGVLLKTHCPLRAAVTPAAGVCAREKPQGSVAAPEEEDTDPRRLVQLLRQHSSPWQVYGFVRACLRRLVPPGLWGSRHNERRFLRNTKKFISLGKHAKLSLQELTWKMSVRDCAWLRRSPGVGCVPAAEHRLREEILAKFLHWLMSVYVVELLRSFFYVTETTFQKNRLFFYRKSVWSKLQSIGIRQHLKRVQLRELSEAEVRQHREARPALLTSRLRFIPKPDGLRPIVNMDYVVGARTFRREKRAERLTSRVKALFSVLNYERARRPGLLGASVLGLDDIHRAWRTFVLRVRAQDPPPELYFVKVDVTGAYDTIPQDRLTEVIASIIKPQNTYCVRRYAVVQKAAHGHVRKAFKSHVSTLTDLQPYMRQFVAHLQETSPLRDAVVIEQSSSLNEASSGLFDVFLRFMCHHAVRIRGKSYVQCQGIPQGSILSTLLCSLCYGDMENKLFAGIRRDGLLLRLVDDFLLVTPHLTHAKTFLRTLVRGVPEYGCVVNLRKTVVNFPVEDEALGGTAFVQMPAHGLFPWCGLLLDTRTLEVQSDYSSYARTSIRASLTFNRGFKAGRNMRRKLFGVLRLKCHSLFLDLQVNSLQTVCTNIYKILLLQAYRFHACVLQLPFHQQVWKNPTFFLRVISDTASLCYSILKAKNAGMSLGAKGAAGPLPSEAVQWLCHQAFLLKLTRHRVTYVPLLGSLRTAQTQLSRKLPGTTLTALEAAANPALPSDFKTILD
PROPERTY_NAME: pIC50
Please treat pIC50 as minus the base-10 logarithm of the molar concentration.

Record excerpt, results attached:
{"STRUCTURE_NOTATION": "COc1cc2c3c([n+](C)c4ccccc4c3c1)-c1ccc(Cl)cc1N2C", "pIC50": 6.55}
{"STRUCTURE_NOTATION": "Cc1ccc2c(c1)-c1c3c(cc(C)cc3c3cc(C)ccc3[n+]1C)N2C", "pIC50": 6.74}
{"STRUCTURE_NOTATION": "COc1cc2c3c([n+](C)c4ccc(Cl)cc4c3c1)-c1ccccc1N2C", "pIC50": 6.62}
{"STRUCTURE_NOTATION": "CN1c2ccccc2-c2c3c1cccc3c1ccccc1[n+]2C", "pIC50": 5.81}

Query: Give the measured pIC50 of CN1c2ccccc2-c2c3c1cccc3c1cc(/C=C/C(=O)N3CCOCC3)ccc1[n+]2C .
Response: 6.43
